These data points were gathered from the supplement of paper PMC10567573.

B1: SASS6 (parent)
chain: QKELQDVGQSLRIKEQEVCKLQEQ

variants of: B1; assay: protein stability index of a GFP-peptide fusion (GPS, HEK-293T) (PSI 1-6); higher = more stable; details: c terminus: a fixed tail appended;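 note: lentivirally expressed fusions sorted by FACS into six bins by GFP to DsRed ratio, PSI derived from sequencing read proportions per bin multiplied by bin number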
metricName: protein stability index

sequencechange=L11I obsvalue=5.39
sequencechange=V18Y obsvalue=5.03
sequencechange=K2E obsvalue=5.48
sequencechange=G8R obsvalue=5.48
sequencechange=E3K obsvalue=4.63
sequencechange=K2T obsvalue=5.34
sequencechange=L4H obsvalue=5.68
sequencechange=E15S obsvalue=4.85
sequencechange=K14T obsvalue=5.75
sequencechange=E3Y obsvalue=4.4
sequencechange=L4K obsvalue=4.87
sequencechange=E23V obsvalue=4.51
sequencechange=I13R obsvalue=5.7
sequencechange=L11H obsvalue=5.36
sequencechange=I13F obsvalue=4.85
sequencechange=Q24G obsvalue=5.12
sequencechange=Q5G obsvalue=5.69
sequencechange=L11A obsvalue=5.25
sequencechange=K14Q obsvalue=4.9
sequencechange=S10T obsvalue=5.48
sequencechange=I13M obsvalue=5.64
sequencechange=E17G obsvalue=4.96
sequencechange=K14E obsvalue=5.49
sequencechange=L4T obsvalue=5.23
sequencechange=C19T obsvalue=5.31
sequencechange=I13A obsvalue=4.69
sequencechange=Q24P obsvalue=5.58
sequencechange=S10E obsvalue=5.72
sequencechange=Q1L obsvalue=4.46
sequencechange=L21F obsvalue=5.14
sequencechange=S10F obsvalue=4.91
sequencechange=V18K obsvalue=5.32
sequencechange=K2A obsvalue=4.58
sequencechange=E3I obsvalue=4.37
sequencechange=Q16H obsvalue=5.13
sequencechange=I13D obsvalue=5.72
sequencechange=E15D obsvalue=5
sequencechange=Q22V obsvalue=4.4
sequencechange=R12Y obsvalue=5.28
sequencechange=L4D obsvalue=5.57
sequencechange=K14R obsvalue=5.19
sequencechange=Q24E obsvalue=5.77
sequencechange=Q1E obsvalue=5.94
sequencechange=Q5T obsvalue=5.41
sequencechange=Q1H obsvalue=5.51
sequencechange=L11D obsvalue=5.75
sequencechange=R12G obsvalue=5.6
sequencechange=Q24F obsvalue=4.44
sequencechange=E3R obsvalue=5.25
sequencechange=C19P obsvalue=4.9
sequencechange=Q24H obsvalue=4.95
sequencechange=E3A obsvalue=4.92
sequencechange=E15G obsvalue=5.1
sequencechange=G8D obsvalue=5.26
sequencechange=R12S obsvalue=5.34
sequencechange=L4P obsvalue=5.34
sequencechange=L21C obsvalue=5.73
sequencechange=S10A obsvalue=5
sequencechange=Q16V obsvalue=5.21
sequencechange=Q22C obsvalue=4.34
sequencechange=L21G obsvalue=5.9
sequencechange=E17S obsvalue=4.97
sequencechange=E17I obsvalue=4.28
sequencechange=S10I obsvalue=3.83
sequencechange=Q22Y obsvalue=4.67
sequencechange=E17R obsvalue=4.54
sequencechange=E23C obsvalue=4.29
sequencechange=Q5C obsvalue=5.7
sequencechange=D6Q obsvalue=5.31
sequencechange=R12E obsvalue=5.71
sequencechange=Q24Y obsvalue=4.57
sequencechange=E17M obsvalue=4.71
sequencechange=Q24L obsvalue=5.16
sequencechange=D6P obsvalue=5.26
sequencechange=Q16M obsvalue=4.96
sequencechange=L21Q obsvalue=5.42
sequencechange=D6V obsvalue=4.46
sequencechange=L21T obsvalue=5.68
